Task for the reader: assign each of the following compounds its reported growth.
# Tested on: OVCAR-8 ovarian
# MEASUREMENT NOTES: NCI-60 one-dose screen, 48 h (100 = growth as untreated, 0 = no growth, -100 = all killed)
# PARTICULARS: 10 µM
The panel holds about 83,000 compounds, 20% with a hit somewhere; the sample as a whole holds those more often.
Answers are plain numbers, in %.

Would you please look over these solved cases?
| COMPOUND | MEASUREMENT UNITS | growth |
| --- | --- | --- |
| Cn1c2ccccc2c2c3[nH][nH]c(=O)c3c3c4ccccc4[nH]c3c21 | % | 33.1 |
| N#CC1=CC2CN(Cc3ccccc3)C1C1C(=O)N(c3ccccc3)C(=O)C21 (stereo unspecified) | % | 98.2 |
| O=C1/C=C/[C@@H](O)[C@@H]2C[C@@H](O)C[C@H]2/C=C/CCC[C@@H](C(F)(F)F)O1 | % | 83.2 |
| Fc1ccc(C(c2ccc(F)cc2)C(Cl)Cl)cc1 | % | 101 |
| C[N+]1(CCCCC[N+]2(C)CCCC2)CCCC1 | % | 78.1 |
| CC1=CC2C(C(O)CC3(C)C2CC(C)C32OCOC23COCO3)C2(C)C/C(=C/O)C(=O)C=C12 (stereo unspecified) | % | 43.8 |

// for each compound in input: emit growth
1. S=c1cnc2ccccc2[nH]1
2. COc1ccc(C2CC(c3cc(OC)c(OC)c(OC)c3)=NN2)cc1 (stereo unspecified)
3. COc1ccc(-c2n[nH]nc2-c2cc(OC)c3c(c2OC)OCO3)cc1
4. CCOC(=O)c1cc(C(=O)c2cc(OC)cc(OC)c2)n2ncc3ccccc3c12
5. CC(=O)Nc1cc2c(cc1Cl)Cc1cc(Cl)ccc1-2
6. CN(C)CCC1(c2ccccc2)CCN(C)C1=O (stereo unspecified)
7. CC(=O)Oc1cc(OC(C)=O)c2ccccc2c1OC(C)=O

96.2
100
43
34.4
88.2
104
81.9

# credit: PubChem BioAssay (NCI)
